Molecular target: huCTLA4 (Homo sapiens, UniProt P16410)
Sequence (P16410 36-223): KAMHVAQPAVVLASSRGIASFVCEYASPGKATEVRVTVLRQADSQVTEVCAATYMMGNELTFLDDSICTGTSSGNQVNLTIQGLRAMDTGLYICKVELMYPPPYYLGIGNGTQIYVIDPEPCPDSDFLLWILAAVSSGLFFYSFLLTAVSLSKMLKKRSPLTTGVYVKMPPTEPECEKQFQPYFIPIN
Assay: Flow binding to CHO cells stably expressing CTLA4
Parameters: huCTLA4 and huPD-L1, full-length mammalian surface expression constructs were generated; expressed in transfected cells; host or cells: CHO cells, lentiviral transduction, sorted to >98% purity
Settings: Table E19; CHO cells stably expressing CTLA4; 33.3 nM
Entries and their CTLA4 MFI at 33.3 nM values follow.
Please reply with the number alone, leaving off any unit.

Sample records with CTLA4 MFI at 33.3 nM:
| molecule | CTLA4 MFI at 33.3 nM |
| --- | --- |
| E35D/D46V/V68M/L85Q (protein) VIHVTKEVKEVATLSCGHNVSVEELAQTRIYWQKDKKMVLTMMSGVMNIWPEYKNRTIFDITNNLSIMILALRPSDEGTYECVVQKYEKDAFKREHLAEVTLSVKAD | 32176 |
| E35D/D46V/L85Q: variant CD80 IgV-Fc, IgV SEQ ID NO:203 (protein) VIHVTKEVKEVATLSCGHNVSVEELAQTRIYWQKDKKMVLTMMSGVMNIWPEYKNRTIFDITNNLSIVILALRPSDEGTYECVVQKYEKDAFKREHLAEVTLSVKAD | 48005 |

Reported CTLA4 MFI at 33.3 nM ( V68M/L85Q (protein) VIHVTKEVKEVATLSCGHNVSVEELAQTRIYWQKEKKMVLTMMSGDMNIWPEYKNRTIFDITNNLSIMILALRPSDEGTYECVVQKYEKDAFKREHLAEVTLSVKAD ) = 3288

For E35D/M47V/N48K/V68M (protein) VIHVTKEVKEVATLSCGHNVSVEELAQTRIYWQKDKKMVLTMMSGDVKIWPEYKNRTIFDITNNLSIMILALRPSDEGTYECVVLKYEKDAFKREHLAEVTLSVKAD the molecule record lists CTLA4 MFI at 33.3 nM as 32913
